Molecular target: human TLR7 (Homo sapiens)
Sequence (Q9NYK1 27-1049): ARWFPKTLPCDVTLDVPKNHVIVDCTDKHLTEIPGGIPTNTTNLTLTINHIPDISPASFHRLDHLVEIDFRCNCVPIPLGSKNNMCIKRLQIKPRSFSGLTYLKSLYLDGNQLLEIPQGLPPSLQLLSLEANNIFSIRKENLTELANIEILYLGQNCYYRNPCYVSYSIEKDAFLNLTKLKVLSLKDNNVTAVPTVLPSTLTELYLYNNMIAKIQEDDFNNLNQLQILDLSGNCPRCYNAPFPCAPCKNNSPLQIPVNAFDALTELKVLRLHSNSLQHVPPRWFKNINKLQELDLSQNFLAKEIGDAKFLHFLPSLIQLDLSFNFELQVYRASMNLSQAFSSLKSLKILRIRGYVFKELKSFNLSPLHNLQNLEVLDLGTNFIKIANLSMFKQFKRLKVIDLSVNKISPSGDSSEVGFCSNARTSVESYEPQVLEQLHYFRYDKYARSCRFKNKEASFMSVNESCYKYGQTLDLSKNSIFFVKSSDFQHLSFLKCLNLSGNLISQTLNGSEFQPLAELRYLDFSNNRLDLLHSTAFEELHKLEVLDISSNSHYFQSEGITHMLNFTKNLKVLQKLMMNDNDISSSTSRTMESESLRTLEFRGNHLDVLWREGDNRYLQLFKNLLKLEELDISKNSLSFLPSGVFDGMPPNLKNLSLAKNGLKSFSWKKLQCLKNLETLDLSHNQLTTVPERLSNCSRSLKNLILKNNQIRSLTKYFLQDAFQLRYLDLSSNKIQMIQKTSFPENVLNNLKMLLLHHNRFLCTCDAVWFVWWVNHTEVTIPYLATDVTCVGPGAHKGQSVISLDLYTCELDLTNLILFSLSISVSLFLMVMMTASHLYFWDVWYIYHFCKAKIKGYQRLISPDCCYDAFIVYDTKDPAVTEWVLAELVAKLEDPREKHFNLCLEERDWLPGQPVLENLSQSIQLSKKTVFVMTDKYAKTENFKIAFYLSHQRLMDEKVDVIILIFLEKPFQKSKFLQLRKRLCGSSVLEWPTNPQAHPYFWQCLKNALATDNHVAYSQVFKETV
Experiment: HEK293-Blue-hTLR-7 cells assay (SEAP reporter, R848 stimulation)
Settings: HEK293-Blue-hTLR7 cells, R848, 20 hrs; read-out: HEK/hTLR7 IC50
Reported values of IC50 for individual entries
Respond with the bare value in nM.

>  <COMPOUND>
C[C@@H]1CN(c2cc(=O)n(C)c3ncccc23)C[C@H](CN2CC(c3ccc(N4CC(C)(N)C4)cc3)C2)O1 [Example 176]

>  <READING_UNIT>
nM

>  <IC50>
36

$$$$
>  <COMPOUND>
[2H]c1ccc2c(N3C[C@H](CN4CCN(c5ccc(N6C[C@H](N)[C@@H](F)C6)nc5)CC4)O[C@H](C)C3)ccc(C#N)c2n1 [Example 150]

>  <READING_UNIT>
nM

>  <IC50>
35

$$$$
>  <COMPOUND>
C[C@@H]1CN(c2ccc(C#N)c3ncccc23)C[C@H](CN2CCN(c3cnc(N4CCNCC4)nc3)CC2)O1 [Example 12]

>  <READING_UNIT>
nM

>  <IC50>
12

$$$$
>  <COMPOUND>
Cc1cc(N2CCN(C[C@H]3CN(c4ccc(C#N)c5ncccc45)C[C@@H](C)O3)CC2)nc(N2CC[C@@H](F)C(N)C2)n1 (single isomer, unassigned) [Example 84]

>  <READING_UNIT>
nM

>  <IC50>
10

$$$$
>  <COMPOUND>
COC1CN(c2nccc(N3CCN(C[C@H]4CN(c5ccc(C#N)c6ncccc56)C[C@@H](C)O4)CC3)n2)CC1N (stereo in doubt) [Example 93]

>  <READING_UNIT>
nM

>  <IC50>
12

$$$$

query: Please list IC50 recorded for the compound COC1CCN(c2nccc(N3CCN(C[C@H]4CN(c5ccc(C#N)c6ncccc56)C[C@@H](C)O4)CC3)n2)CC1N (stereo partly shown) [Example 109]
result: 16

query: Identify measured IC50 corresponding to Cc1cc(N2CCN(C[C@H]3CN(c4ccc(C#N)c5ncccc45)C[C@@H](C)O3)CC2)nc(N2CC(N)C2)n1 [Example 87]
result: 8

* * *

molecular target: human TLR8 (Homo sapiens, UniProt Q9NR97); experiment: HEK293-Blue-hTLR-8 cells assay (SEAP reporter, R848 stimulation); details: HEK293-Blue-hTLR8 cells, R848, 20 hrs; read-out: HEK/hTLR8 IC50
Sequence (Q9NR97 27-1041): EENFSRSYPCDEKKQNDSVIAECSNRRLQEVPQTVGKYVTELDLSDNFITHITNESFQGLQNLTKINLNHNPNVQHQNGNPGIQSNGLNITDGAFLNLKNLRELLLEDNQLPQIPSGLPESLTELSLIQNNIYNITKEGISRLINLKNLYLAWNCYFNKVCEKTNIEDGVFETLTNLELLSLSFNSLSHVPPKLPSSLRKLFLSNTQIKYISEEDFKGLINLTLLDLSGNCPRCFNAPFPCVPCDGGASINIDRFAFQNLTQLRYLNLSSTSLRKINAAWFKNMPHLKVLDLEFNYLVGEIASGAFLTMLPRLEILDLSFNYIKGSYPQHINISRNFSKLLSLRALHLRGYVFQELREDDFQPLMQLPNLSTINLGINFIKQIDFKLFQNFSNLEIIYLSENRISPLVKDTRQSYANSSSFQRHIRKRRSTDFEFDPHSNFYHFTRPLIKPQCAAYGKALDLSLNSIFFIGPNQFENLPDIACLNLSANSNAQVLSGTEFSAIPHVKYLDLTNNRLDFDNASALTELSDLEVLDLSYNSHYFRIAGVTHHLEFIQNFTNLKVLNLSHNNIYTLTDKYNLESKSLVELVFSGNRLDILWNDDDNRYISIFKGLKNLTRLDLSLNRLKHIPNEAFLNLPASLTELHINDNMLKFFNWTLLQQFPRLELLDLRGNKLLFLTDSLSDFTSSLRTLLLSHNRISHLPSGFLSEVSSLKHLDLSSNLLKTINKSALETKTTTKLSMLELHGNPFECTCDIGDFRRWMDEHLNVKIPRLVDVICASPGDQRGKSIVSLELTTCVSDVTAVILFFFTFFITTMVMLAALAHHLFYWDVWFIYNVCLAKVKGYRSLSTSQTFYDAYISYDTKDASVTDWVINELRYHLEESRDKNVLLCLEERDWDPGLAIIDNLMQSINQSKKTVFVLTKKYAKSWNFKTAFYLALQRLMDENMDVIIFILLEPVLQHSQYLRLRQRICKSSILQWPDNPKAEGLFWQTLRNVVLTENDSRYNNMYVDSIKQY
ENDPOINT_NAME: pIC50
Keep it numeric: pIC50 is minus log10 of the concentration in mol/L.

Recorded pIC50, per entry:
>  <COMPOUND>
Cc1cc(N2C[C@@H](N)[C@](C)(O)C2)nc(N2CCN(C[C@H]3CN(c4ccc(C#N)c5nccnc45)C[C@@H](C)O3)CC2)n1 [Example 125]

>  <pIC50>
8.70

$$$$
>  <COMPOUND>
CO[C@H]1CN(c2cccc(N3CCN(C[C@H]4CN(c5ccc(C#N)c6ncccc56)C[C@@H](C)O4)CC3)n2)C[C@H]1N [Example 42]

>  <pIC50>
7.89

$$$$

Attention now turns to another entry.
query: Give the reported pIC50 for this compound. COC1CNCC1Nc1nc(C)cc(N2CCN(C[C@H]3CN(c4ccc(C#N)c5ncccc45)C[C@@H](C)O3)CC2)n1 (stereo in doubt) [Example 70]
result: 7.92
